# Protocol text: chemical genetic growth profiling, strain panel (AID 1159580);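 further: tested at 20 µM; growth read once vehicle control cultures reached saturation at 30 °C; 1 = growth at the plate median or of vehicle wells; lower values mean less growth of the strain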
# Conditions: S. cerevisiae deletion strains, growth OD, locus YFR019W, strain FAB1, stronger effect = lower value
Among all 5,500 compounds or so, about 2,000 (36%) were called active. Inconclusive results (about 18%) are left out. The list shows a part of the results.
Measured metric: normalized growth
One number for each entry.

Some solved entries appear below for comparison.
[
  {
    "Molecule": "S=C(Nc1cc(Cl)c(Cl)cc1Cl)Nc1ccccc1Br",
    "normalized growth": 0.899
  },
  {
    "Molecule": "N#Cc1ccc(NC(=O)Nc2cccc3ccccc23)cc1",
    "normalized growth": 0.932
  },
  {
    "Molecule": "O=C1CSC(c2ccc(C(F)(F)F)cc2)N1c1ccc(C(F)(F)F)cc1 (stereo not given)",
    "normalized growth": 0.95
  },
  {
    "Molecule": "NNC(=O)c1csc(Cc2c(Cl)sc3ccc(Cl)cc23)n1",
    "normalized growth": 0.992
  }
]

Param item = CNC(=O)n1nc(C)c(Cc2csc3ccc(Cl)cc23)c1C ; retrieve measured normalized growth. 0.928

----------
# Protocol text: chemical genetic growth profiling, strain panel (AID 1159580);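 further: tested at 20 µM; growth read once vehicle control cultures reached saturation at 30 °C; 1 = growth at the plate median or of vehicle wells; lower values mean less growth of the strain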
# Conditions: S. cerevisiae deletion strains, growth OD, locus YHR030C, strain SLT2
Screen size: about 5,500 compounds; about 2,000 (36%) were called active. Inconclusive results (about 18%) are left out. Cut-off read from the data, not from the text of the source: active = normalized growth mostly below about 0.91 (no sharp cut-off); inconclusive = no clear call, values can overlap the other calls; inactive = mostly above about 0.92. The list shows a part of the results.
Just give me one of these, please: YES = active, NO = inactive

Answered cases to consult:
[
  {
    "Molecule": "N/C(=N/O)c1csc(-c2ccc(F)cc2F)n1",
    "Qualitative label": "NO"
  },
  {
    "Molecule": "CC1(C)c2ccccc2N(CCC(N)=O)C12C=Cc1c(ccc3ccccc13)O2 (centres undefined)",
    "Qualitative label": "NO"
  },
  {
    "Molecule": "O=C(CCn1c(=O)oc2ccccc21)Sc1ccc(C(F)(F)F)cc1",
    "Qualitative label": "YES"
  },
  {
    "Molecule": "COc1ccc(N=Cc2ccccc2O)cc1",
    "Qualitative label": "NO"
  },
  {
    "Molecule": "O=c1cc(-c2ccccc2)oc2cccc(O)c12",
    "Qualitative label": "NO"
  },
  {
    "Molecule": "Cc1nn(Cc2n[nH]c(=S)o2)c(C)c1Br",
    "Qualitative label": "NO"
  },
  {
    "Molecule": "COc1ccc(CNc2ccccc2-c2nc3ccccc3[nH]2)cc1",
    "Qualitative label": "YES"
  },
  {
    "Molecule": "OC1=Cc2c(O)cc(O)cc2OC1(O)c1ccc(O)c(O)c1 (centres undefined)",
    "Qualitative label": "NO"
  }
]

Test call for this molecule, please: NC(=O)c1ncn(C2O[C@H](CO)[C@@H](O)[C@H]2O)c1N (some centres undefined) NO

----------
# Protocol text: chemical genetic growth profiling, strain panel (AID 1159580);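 further: tested at 20 µM; growth read once vehicle control cultures reached saturation at 30 °C; 1 = growth at the plate median or of vehicle wells; lower values mean less growth of the strain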
# Conditions: S. cerevisiae deletion strains, growth OD, locus YBL105C, strain PKC1, stronger effect = lower value
In all, about 5,500 compounds went through this assay and about 2,000 (36%) were called active. Another 18% or so got no clear call; they are omitted. This is one part of the list.
Measured metric: normalized growth
Give bare numbers.

Some molecules with known normalized growth results, for comparison:
[
  {
    "Structure": "NNC(=O)c1csc(Cc2c(Cl)sc3ccc(Cl)cc23)n1",
    "normalized growth": 0.983
  },
  {
    "Structure": "O=S(=O)(Nc1ccc(Oc2ccc(OC(F)(F)F)cc2)cc1)c1cccc(Cl)c1",
    "normalized growth": 0.973
  },
  {
    "Structure": "COc1ccc(OC)c(-c2ccn[nH]2)c1OCc1ccccc1",
    "normalized growth": 0.998
  }
]

What value of measured normalized growth is listed for Cc1nn(Cc2nnc(SCc3cccc(C(F)(F)F)c3)o2)c(C)c1Br ? 0.969

Each recorded value in this set is attributed to PubChem BioAssay AID1159580.
